Hello, the source for this data is patent US8987312B2, in case you need it.

# measured target: purified recombinant rat FAAH (Rattus norvegicus)
# Construct: The truncated rat FAAH (rFAAH) was expressed in E. coli and purified as described; made in house; host or cells: Escherichia coli
# Sequence (P97612 30-579 limits assumed): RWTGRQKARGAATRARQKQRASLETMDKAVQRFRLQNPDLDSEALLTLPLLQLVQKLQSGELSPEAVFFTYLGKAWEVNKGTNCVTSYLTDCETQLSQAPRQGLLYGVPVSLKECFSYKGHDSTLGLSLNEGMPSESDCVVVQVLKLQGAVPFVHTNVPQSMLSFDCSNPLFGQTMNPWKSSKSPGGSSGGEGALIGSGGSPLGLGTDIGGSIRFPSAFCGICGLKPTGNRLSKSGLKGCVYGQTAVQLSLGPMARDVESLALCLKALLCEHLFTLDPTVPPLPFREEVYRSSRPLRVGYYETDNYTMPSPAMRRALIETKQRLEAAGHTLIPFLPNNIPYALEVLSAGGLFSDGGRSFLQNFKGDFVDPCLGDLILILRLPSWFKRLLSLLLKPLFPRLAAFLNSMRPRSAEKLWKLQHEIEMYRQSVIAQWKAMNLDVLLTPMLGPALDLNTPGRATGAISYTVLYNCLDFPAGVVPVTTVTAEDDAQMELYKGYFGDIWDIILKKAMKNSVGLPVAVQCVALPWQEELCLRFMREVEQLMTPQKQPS
# assay: FAAH inhibition enzyme assay (14C-oleamide hydrolysis, Dixon plot), rat enzyme
# Format: biochemical
# run parameters: Table 2; rat FAAH, pH 9 assay conditions; read-out: Ki
reported property: pKi
Numbers only, as −log10 of the molar value.

{"molecule": "O=C(CCCCCCc1ccccc1)c1ncc(-c2ccco2)s1 [11c]", "pKi": 5.82}

Each molecule below has a recorded value; state its pKi.
1. O=C(CCCCCCc1ccccc1)c1nnn(-c2ccccc2)n1 [15e]
2. O=C(CCCCCCc1ccccc1)c1nccs1 [11a, 7-Phenyl-1-(thiazol-2-yl)-heptan-1-one]
3. O=C(CCCCCCc1ccccc1)c1noc(-c2ccco2)n1 [10c]
4. O=C(CCCCCCc1ccccc1)c1noc(-c2ccccn2)n1 [10b]
5. COC(=O)c1cccc(-c2noc(C(=O)CCCCCCc3ccccc3)n2)n1

Reply:
1: 7.80; 2: 6.10; 3: 8.07; 4: 8.96; 5: 8.52

====

# measured target: purified recombinant rat FAAH (Rattus norvegicus, UniProt P97612)
# Construct: The truncated rat FAAH (rFAAH) was expressed in E. coli and purified as described; made in house; host or cells: Escherichia coli
# assay: FAAH inhibition enzyme assay (14C-oleamide hydrolysis, Dixon plot), rat enzyme
# Format: biochemical
# run parameters: Table 2; rat FAAH, pH 9 assay conditions; read-out: Ki
reported property: Ki

Answered cases to consult:
{"compound": "O=C(CCCCCCc1ccccc1)c1nnc(-c2cccs2)s1 [12d]", "Ki": "27 nM"}
{"compound": "O=C(CCCCCCc1ccccc1)c1nnc[nH]1 [14a]", "Ki": "> 1000 nM"}
{"compound": "O=C(CCCCCCc1ccccc1)c1nc(-c2ccco2)no1", "Ki": "1 nM"}
{"compound": "O=C(CCCCCCc1ccccc1)c1nnc(-c2ccccn2)s1 [12b]", "Ki": "0.8 nM"}
{"compound": "O=C(O)c1cccc(-c2nc(C(=O)CCCCCCc3ccccc3)no2)n1 [10g]", "Ki": "53 nM"}

Need Ki for each of these compounds.
1. O=C(CCCCCCc1ccccc1)c1nnc(-c2cccs2)o1
2. O=C(CCCCCCc1ccccc1)c1nnco1

Reply:
1. 0.8 nM
2. 1 nM

Quick request: Ki for each listed item, please.
1. O=C(CCCCCCc1ccccc1)c1ncc(-c2cccs2)o1
2. O=C(CCCCCCc1ccccc1)c1ncc(-c2ccco2)o1
3. O=C(CCCCCCc1ccccc1)c1ccc(-c2ccco2)nn1 [13c]

Reply:
["55 nM", "12 nM", "40 nM"]

For each of the items listed, what is its Ki?
1. O=C(CCCCCCc1ccccc1)c1ncon1 [10a]
2. O=C(CCCCCCc1ccccc1)c1nnc(-c2ccco2)s1 [12c]
3. O=C(CCCCCCc1ccccc1)c1ccc(-c2cccs2)nn1 [13d]
4. O=C(CCCCCCc1ccccc1)c1noc(-c2cccs2)n1 [10d]
5. COC(=O)c1cccc(-c2cnc(C(=O)CCCCCCc3ccccc3)s2)n1 [11f]

Reply:
7 nM
7.4 nM
46 nM
44 nM
500 nM
